test system: BT-474; assay: normalised response (% of control), CellTiter-Glo; higher = more viable cells (100 = DMSO, 0 = benzethonium chloride kill control); details: incubation time: 72 h
RECORDED_ENDPOINT: normalised response
Hi, when you answer, please include the unit after the number. Thanks!

Consider the reported normalised response for these compounds:
compound="Nc1nc(Cl)nc2c1ncn2[C@H]1C[C@H](O)[C@@H](CO)O1 [Cladribine] (1000 nM)" recorded_endpoint="normalised response" recorded_result=74.8%
compound="S=c1[nH]cnc2nc[nH]c12 [Mercaptopurine] (10000 nM)" recorded_endpoint="normalised response" recorded_result=31.6%
compound="CO[C@H]1C[C@@H]2CC[C@@H](C)[C@@](O)(O2)C(=O)C(=O)N2CCCC[C@H]2C(=O)O[C@H]([C@H](C)C[C@@H]2CC[C@@H](OC(=O)C(C)(CO)CO)[C@H](OC)C2)CC(=O)[C@H](C)/C=C(\\C)[C@@H](O)[C@@H](OC)C(=O)[C@H](C)C[C@H](C)/C=C/C=C/C=C/1C [Temsirolimus] (100 nM)" recorded_endpoint="normalised response" recorded_result=84.3%

Then this compound:
What the record says about COc1cccc2cc(-c3nc([C@H]4CC[C@H](C(=O)O)CC4)n4ncnc(N)c34)[nH]c12 [OSI-027] (10000 nM) : normalised response is 51.8%

* * *

tested on: HDQ-P1; assay: normalised response (% of control), CellTiter-Glo; higher = more viable cells (100 = DMSO, 0 = benzethonium chloride kill control); conditions: incubation time: 72 h
normalised response for assorted compounds
# number only, unit % dropped from output

Consider the reported normalised response for these compounds:
compound="CN1CCC(COc2cnc(-c3cccc(Cn4nc(-c5cccc(C#N)c5)ccc4=O)c3)nc2)CC1 (1000 nM)" target_or_test_system=HDQ-P1 recorded_result=99.6
compound="O=C(c1ccc(C(=O)N2CCC(N3CCCC3)CC2)c(Nc2ccccc2)c1)N1CCC(N2CCCC2)CC1 [UNC1215] (30000 nM)" target_or_test_system=HDQ-P1 recorded_result=97.7
compound="CC(=O)O[C@]1(C(C)=O)CC[C@H]2[C@@H]3C=C(C)C4=CC(=O)CC[C@]4(C)[C@H]3CC[C@@]21C [Megestrol acetate] (10000 nM)" target_or_test_system=HDQ-P1 recorded_result=102
compound="S=c1[nH]cnc2nc[nH]c12 [Mercaptopurine] (10000 nM)" target_or_test_system=HDQ-P1 recorded_result=35.9
compound="Cc1c2oc3c(C)ccc(C(=O)N[C@@H]4C(=O)N[C@H](C(C)C)C(=O)N5CCC[C@H]5C(=O)N(C)CC(=O)N(C)[C@@H](C(C)C)C(=O)O[C@@H]4C)c3nc-2c(C(=O)N[C@@H]2C(=O)N[C@H](C(C)C)C(=O)N3CCC[C@H]3C(=O)N(C)CC(=O)N(C)[C@@H](C(C)C)C(=O)O[C@@H]2C)c(N)c1=O [Dactinomycin] (1000 nM)" target_or_test_system=HDQ-P1 recorded_result=24.8

Then this compound:
What the record says about C=CC[C@@H]1/C=C(\C)C[C@H](C)C[C@H](OC)[C@H]2O[C@@](O)(C(=O)C(=O)N3CCCC[C@H]3C(=O)O[C@H](/C(C)=C/[C@@H]3CC[C@@H](O)[C@H](OC)C3)[C@H](C)[C@@H](O)CC1=O)[C@H](C)C[C@@H]2OC [Tacrolimus] (10000 nM) : normalised response is 103

* * *

tested on: HDQ-P1; test: normalised response (% of control), CellTox Green; higher = less cell death (100 = DMSO, 0 = benzethonium chloride kill control); conditions: incubation time: 72 h
RECORDED_ENDPOINT: normalised response (%)
# number only, unit % dropped from output

Consider the reported normalised response for these molecules:
molecule="COc1cc(Nc2ncc3c(n2)-c2ccc(Cl)cc2C(c2c(F)cccc2OC)=NC3)ccc1C(=O)O [Alisertib] (1000 nM)" recorded_endpoint="normalised response" unit_descriptor=% recorded_result=78.2
molecule="Clc1ccc(C(c2ccccc2Cl)C(Cl)Cl)cc1 (stereo not given) [Mitotane] (100 nM)" recorded_endpoint="normalised response" unit_descriptor=% recorded_result=95.8
molecule="CC(=O)O[C@]1(C(C)=O)CC[C@H]2[C@@H]3C=C(C)C4=CC(=O)CC[C@]4(C)[C@H]3CC[C@@]21C [Megestrol acetate] (100 nM)" recorded_endpoint="normalised response" unit_descriptor=% recorded_result=81.5

What the record says about CN1CCC(COc2cnc(-c3cccc(Cn4nc(-c5cccc(C#N)c5)ccc4=O)c3)nc2)CC1 (1000 nM) : normalised response is 95.5

What the record says about COc1cc(Nc2ncc3c(n2)-c2ccc(Cl)cc2C(c2c(F)cccc2OC)=NC3)ccc1C(=O)O [Alisertib] (10000 nM) : normalised response is 94.7

What the record says about Nc1ccn([C@@H]2O[C@H](CO)[C@@H](O)[C@@H]2O)c(=O)n1 [Cytarabine] (100 nM) : normalised response is 101

What the record says about OC[C@H]1O[C@@H](n2cnc3c2N=CNC[C@H]3O)C[C@@H]1O [Pentostatin] (100 nM) : normalised response is 77.7

What the record says about S=c1[nH]cnc2nc[nH]c12 [Mercaptopurine] (100 nM) : normalised response is 66.2

What the record says about Cc1c2oc3c(C)ccc(C(=O)N[C@@H]4C(=O)N[C@H](C(C)C)C(=O)N5CCC[C@H]5C(=O)N(C)CC(=O)N(C)[C@@H](C(C)C)C(=O)O[C@@H]4C)c3nc-2c(C(=O)N[C@@H]2C(=O)N[C@H](C(C)C)C(=O)N3CCC[C@H]3C(=O)N(C)CC(=O)N(C)[C@@H](C(C)C)C(=O)O[C@@H]2C)c(N)c1=O [Dactinomycin] (1000 nM) : normalised response is 94.9

What the record says about C=CCNC1=C2C[C@@H](C)C[C@H](OC)[C@H](O)[C@@H](C)/C=C(\C)[C@H](OC(N)=O)[C@@H](OC)/C=C\C=C(/C)C(=O)NC(=CC1=O)C2=O [Tanespimycin] (10000 nM) : normalised response is 55.1

What the record says about CO[C@H]1C[C@@H]2CC[C@@H](C)[C@@](O)(O2)C(=O)C(=O)N2CCCC[C@H]2C(=O)O[C@H]([C@H](C)C[C@@H]2CC[C@@H](OC(=O)C(C)(CO)CO)[C@H](OC)C2)CC(=O)[C@H](C)/C=C(\C)[C@@H](O)[C@@H](OC)C(=O)[C@H](C)C[C@H](C)/C=C/C=C/C=C/1C [Temsirolimus] (100 nM) : normalised response is 109

* * *

system: CAL-85-1; assay: normalised response (% of control), CellTiter-Glo; higher = more viable cells (100 = DMSO, 0 = benzethonium chloride kill control); conditions: incubation time: 72 h
RECORDED_ENDPOINT: normalised response (%)
# number only, unit % dropped from output

Consider the reported normalised response for these molecules:
molecule="C=CCNC1=C2C[C@@H](C)C[C@H](OC)[C@H](O)[C@@H](C)/C=C(\\C)[C@H](OC(N)=O)[C@@H](OC)/C=C\\C=C(/C)C(=O)NC(=CC1=O)C2=O [Tanespimycin] (10 nM)" recorded_result=100
molecule="CC(=O)O[C@]1(C(C)=O)CC[C@H]2[C@@H]3C=C(C)C4=CC(=O)CC[C@]4(C)[C@H]3CC[C@@]21C [Megestrol acetate] (10 nM)" recorded_result=98
molecule="Nc1nc(Cl)nc2c1ncn2[C@H]1C[C@H](O)[C@@H](CO)O1 [Cladribine] (0.1 nM)" recorded_result=99.8

Then this molecule:
What the record says about CN(C)C/C=C/C(=O)Nc1cc2c(Nc3ccc(F)c(Cl)c3)ncnc2cc1O[C@H]1CCOC1 [Afatinib] (100 nM) : normalised response is 65.9

* * *

normalised response for assorted molecules
system: CAL-148; test: normalised response (% of control), CellTox Green; higher = less cell death (100 = DMSO, 0 = benzethonium chloride kill control); conditions: incubation time: 72 h
# number only, unit % dropped from output

molecule="Nc1nc(Cl)nc2c1ncn2[C@H]1C[C@H](O)[C@@H](CO)O1 [Cladribine] (100 nM)" recorded_result=95.7
molecule="CN1CCC(COc2cnc(-c3cccc(Cn4nc(-c5cccc(C#N)c5)ccc4=O)c3)nc2)CC1 (100 nM)" recorded_result=103
molecule="Clc1ccc(C(c2ccccc2Cl)C(Cl)Cl)cc1 (centres undefined) [Mitotane] (10000 nM)" recorded_result=98.1

Then this molecule:
What the record says about OC[C@H]1O[C@@H](n2cnc3c2N=CNC[C@H]3O)C[C@@H]1O [Pentostatin] (10000 nM) : normalised response is 102

* * *

test system: BT-549; test: normalised viability (% of control), CellTiter-Blue; higher = more viable cells (about 100 = DMSO control); settings: 100 nM; incubation time: 72 h
Exam item: assign class 1 to entries whose normalised viability is below 80% and class 0 to entries at or above 80%. Note that a value of exactly 80% receives class 0.

compound="Clc1ccc(C(c2ccccc2Cl)C(Cl)Cl)cc1 (stereo not given) [Mitotane]" category="class 0"
compound="N#CC[C@H](C1CCCC1)n1cc(-c2ncnc3[nH]ccc23)cn1 [Ruxolitinib]" category="class 1"
compound="COc1cccc2cc(-c3nc([C@H]4CC[C@H](C(=O)O)CC4)n4ncnc(N)c34)[nH]c12 [OSI-027]" category="class 1"

Moving on to another compound below.
Report whether reported normalised viability is lower than 80% (strictly) for CN1CC[C@H](c2c(O)cc(O)c3c(=O)cc(-c4ccccc4Cl)oc23)[C@H](O)C1 [Alvocidib]
class 0
